# Tested on: HCV 1a-H77 transient subgenomic replicon in Huh-7 derived cell line
# assaySummary: microbe, parasite or virus in culture
# Format: cell-based, HCV genotype 1a
# conditionParameters: Hepatitis C virus, Huh-7; transient replicon, 5% FBS; read-out: Transient Replicon 1a H77 5% FBS EC50
EC50 values for the compounds below.
quantity: EC50 (nM)

>>> measured("CS(=O)(=O)N(Cc1cnc(-c2ccc3[nH]ccc3c2)s1)c1cc2oc(-c3ccc(F)cc3)c(-c3ncc[nH]3)c2cc1C1CC1 [Example 31]")
30.9
>>> measured("Cc1cnc(-c2c(-c3ccc(F)cc3)oc3cc(N(CCC(C)C)S(C)(=O)=O)c(C4CC4)cc23)[nH]1 [Example 172]")
40.4
>>> measured("CS(=O)(=O)N(CCCO)c1cc2oc(-c3ccc(F)cc3)c(-c3ncc[nH]3)c2cc1C1CC1 [Example 65]")
5.4
>>> measured("COc1ccc(CN(c2cc3oc(-c4ccc(F)cc4)c(C4=NOCN4)c3cc2C2CC2)S(C)(=O)=O)cc1 [Example 145]")
100
>>> measured("CC(O)CCCN(c1cc2oc(-c3ccc(F)cc3)c(-c3ncc[nH]3)c2cc1C1CC1)S(C)(=O)=O (centres unmarked) [Example 100]")
4.2
>>> measured("CS(=O)(=O)N(CCCCC(N)=O)c1cc2oc(-c3ccc(F)cc3)c(-c3ncc[nH]3)c2cc1C1CC1 [Example 91]")
5.6
>>> measured("CS(=O)(=O)N(CCO)c1cc2oc(-c3ccc(F)cc3)c(C3=NOCCN3)c2cc1C1CC1 [Example 136]")
32.4
>>> measured("CS(=O)(=O)N(Cc1cnc(-c2ccc3nc[nH]c3c2)s1)c1ccc2c(-c3ncc[nH]3)c(-c3ccccc3)oc2c1 [Example 3]")
21.3
>>> measured("CC1NC(c2c(-c3ccc(F)cc3)oc3cc(N(CCO)S(C)(=O)=O)c(C4CC4)cc23)=NO1 (centres unmarked) [Example 158]")
19.5
>>> measured("CS(=O)(=O)N(CCCN1CCOCC1)c1cc2oc(-c3ccc(F)cc3)c(C3=NOCCN3)c2cc1C1CC1 [Example 126]")
33.6
>>> measured("CS(=O)(=O)N(CCCCO)c1cc2oc(-c3ccc(F)cc3)c(C3=NOCCN3)c2cc1C1CC1 [Example 8]")
3.1
>>> measured("Cc1c[nH]c(-c2c(-c3ccc(F)cc3)oc3cc(N(CCO)S(C)(=O)=O)c(C4CC4)cc23)n1 [Example 189]")
139
>>> measured("CS(=O)(=O)N(CCCS(=O)(=O)c1ccccc1)c1cc2oc(-c3ccc(F)cc3)c(-c3ncc[nH]3)c2cc1C1CC1 [Example 90]")
2.7
>>> measured("CC(C)(C#N)CCCCN(c1cc2oc(-c3ccc(F)cc3)c(C3=NOCCN3)c2cc1C1CC1)S(C)(=O)=O [Example 115]")
7.3
>>> measured("CC(C)CN(c1cc2oc(-c3ccc(F)cc3)c(-c3ncc[nH]3)c2cc1C1CC1)S(C)(=O)=O [Example 66]")
68.9
>>> measured("CCS(=O)(=O)CCN(c1cc2oc(-c3ccc(F)cc3)c(-c3ncc[nH]3)c2cc1C1CC1)S(C)(=O)=O [Example 96]")
1.1
>>> measured("CS(=O)(=O)N(CCCCC(=O)O)c1cc2oc(-c3ccc(F)cc3)c(-c3ncc[nH]3)c2cc1C1CC1 [Example 92]")
19.4
>>> measured("CS(=O)(=O)CCCCN(c1cc2oc(-c3ccc(F)cc3)c(-c3ncc[nH]3)c2cc1C1CC1)S(C)(=O)=O [Example 6]")
3.2
>>> measured("CC(C)CCN(c1cc2oc(-c3ccc(F)cc3)c(C3=NOCN3)c2cc1C1CC1)S(C)(=O)=O [Example 156]")
29.1
>>> measured("CC(C)(O)C(O)CCN(c1cc2oc(-c3ccc(F)cc3)c(-c3ncc[nH]3)c2cc1C1CC1)S(C)(=O)=O (centres unmarked) [Example 84]")
25.4
>>> measured("CC(C)(O)CCCN(c1cc2oc(-c3ccc(F)cc3)c(-c3ncc[nH]3)c2cc1C1CC1)S(C)(=O)=O [Example 99]")
7.6
>>> measured("CS(=O)(=O)N(CCCC(=O)O)c1cc2oc(-c3ccc(F)cc3)c(C3=NOCCN3)c2cc1C1CC1 [Example 135]")
372
>>> measured("CS(=O)(=O)N(CCO)c1cc2oc(-c3ccc(F)cc3)c(-c3ncc[nH]3)c2cc1C1CC1 [Example 109]")
38
>>> measured("CS(=O)(=O)CCCCN(c1cc2oc(-c3ccc(Nc4ccccc4)cc3)c(-c3ncc[nH]3)c2cc1C1CC1)S(C)(=O)=O [Example 169]")
0.6
>>> measured("CS(=O)(=O)N(CCCc1cc(O)no1)c1cc2oc(-c3ccc(F)cc3)c(-c3ncc[nH]3)c2cc1C1CC1 [Example 7]")
9.9
>>> measured("Cc1c[nH]c(-c2c(-c3ccc(F)cc3)oc3cc(N(CCCCO)S(C)(=O)=O)c(C4CC4)cc23)n1 [Example 187]")
28.9
>>> measured("CC1NC(c2c(-c3ccc(F)cc3)oc3cc(N(CC[S+](C)[O-])S(C)(=O)=O)c(C4CC4)cc23)=NO1 (centres unmarked) [Example 13]")
11.1
>>> measured("CS(=O)(=O)CCN(c1cc2oc(-c3ccc(F)cc3)c(-c3ncc[nH]3)c2cc1C1CC1)S(C)(=O)=O [Example 87]")
6.1
>>> measured("CS(=O)(=O)N(CC#N)c1cc2oc(-c3ccc(F)cc3)c(-c3ncc[nH]3)c2cc1C1CC1 [Example 63]")
75.6

###

# systemUnderTest: HCV NS5B polymerase 1b Rice (Hepatitis C virus genotype 1b, UniProt Q9WMX2)
# Construct: six-histidine tag
# assaySummary: HCV NS5B polymerase enzymatic inhibition assay, strain 1b Rice
# conditionParameters: enzyme
pIC50: −log10 of the molar value.
quantity: pIC50

>>> measured("CS(=O)(=O)CCCCN(c1cc2oc(-c3ccc(Nc4ccccc4)cc3)c(-c3ncc[nH]3)c2cc1C1CC1)S(C)(=O)=O")
8.03
>>> measured("C=C(c1ccccc1)c1ccc(-c2oc3cc(N(CCC(C)C)S(C)(=O)=O)c(C4CC4)cc3c2-c2ncc[nH]2)cc1")
7.21
>>> measured("CC(C)CCN(c1cc2oc(-c3ccc(Nc4ccccc4)cc3)c(-c3ncc[nH]3)c2cc1C1CC1)S(C)(=O)=O")
7.52
>>> measured("COc1ccc(-c2nn3ccc(-c4cc(C(=O)NC5(c6ccccc6)CC5)ccc4C)cc3c2C2=NOCCN2)cc1")
8.14
>>> measured("CCCC/C=C/c1ccc(-c2oc3cc(N(CCCCS(C)(=O)=O)S(C)(=O)=O)c(C4CC4)cc3c2-c2ncc[nH]2)cc1")
8.31
>>> measured("COc1ccc(-c2nn3ccc(-c4cc(C(=O)NC5(c6ccccc6)CC5)ccc4C)cc3c2-c2ncc[nH]2)cc1")
8.08
>>> measured("CS(=O)(=O)N(CCO)c1cc2oc(-c3ccc(F)cc3)c(-c3ncc[nH]3)c2cc1C1CC1")
7.77
>>> measured("CS(=O)(=O)N(CCO)c1cc2oc(-c3ccc(F)cc3)c(C3=NOCCN3)c2cc1C1CC1")
7.24

###

# systemUnderTest: HCV NS5B polymerase 1a-H77-C316Y (Hepatitis C virus genotype 1a, UniProt P27958, C2736Y)
# Construct: six-histidine tag
# Sequence (P27958 2421-2990 C2736Y): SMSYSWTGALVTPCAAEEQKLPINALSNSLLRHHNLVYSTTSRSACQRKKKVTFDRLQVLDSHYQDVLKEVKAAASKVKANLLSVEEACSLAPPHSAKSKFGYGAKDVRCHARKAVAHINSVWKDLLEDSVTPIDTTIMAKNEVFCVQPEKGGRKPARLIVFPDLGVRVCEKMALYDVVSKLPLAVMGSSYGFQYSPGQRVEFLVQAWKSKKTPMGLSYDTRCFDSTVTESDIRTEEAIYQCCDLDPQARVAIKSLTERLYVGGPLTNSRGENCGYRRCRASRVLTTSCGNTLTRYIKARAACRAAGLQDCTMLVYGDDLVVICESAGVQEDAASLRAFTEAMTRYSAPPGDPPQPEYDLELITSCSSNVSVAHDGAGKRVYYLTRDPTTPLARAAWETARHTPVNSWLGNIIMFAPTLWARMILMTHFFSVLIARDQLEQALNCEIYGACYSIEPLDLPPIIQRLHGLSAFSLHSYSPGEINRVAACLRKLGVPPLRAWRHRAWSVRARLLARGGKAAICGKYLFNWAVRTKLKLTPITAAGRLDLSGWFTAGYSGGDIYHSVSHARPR
# assaySummary: biochemical
pIC50: −log10 of the molar value.
Label -1 if pIC50 falls below 7; label 1 in every other case.

>>> class("C[S+]([O-])CCN(c1cc2oc(-c3ccc(F)cc3)c(C3=NOCCN3)c2cc1C1CC1)S(C)(=O)=O (centres unmarked)")
-1
>>> class("CS(=O)(=O)N(CCN1CCCC1)c1cc2oc(-c3ccc(F)cc3)c(C3=NOCCN3)c2cc1C1CC1")
-1
>>> class("CS(=O)(=O)N(CCCN)c1cc2oc(-c3ccc(F)cc3)c(-c3ncc[nH]3)c2cc1C1CC1")
-1
>>> class("CS(=O)(=O)CCCCN(c1cc2oc(-c3ccc(F)cc3)c(C3=NOCCN3)c2cc1C1CC1)S(C)(=O)=O")
1
>>> class("CC(C)(C#N)CCCCN(c1cc2oc(-c3ccc(F)cc3)c(C3=NOCCN3)c2cc1C1CC1)S(C)(=O)=O")
1
>>> class("CS(=O)(=O)N(CCCCO)c1cc2oc(-c3ccc(F)cc3)c(C3=NOCCN3)c2cc1C1CC1")
1
>>> class("CS(=O)(=O)N(CC#N)c1cc2oc(-c3ccc(F)cc3)c(-c3ncc[nH]3)c2cc1C1CC1")
-1
>>> class("CS(=O)(=O)N(CCCCCO)c1cc2oc(-c3ccc(F)cc3)c(C3=NOCCN3)c2cc1C1CC1")
1
>>> class("CS(=O)(=O)N(CCCCCO)c1cc2oc(-c3ccc(F)cc3)c(C3=NOCN3)c2cc1C1CC1")
1
>>> class("CC(C)CCN(c1cc2oc(-c3ccc(F)cc3)c(C3=NOCN3)c2cc1C1CC1)S(C)(=O)=O")
1
>>> class("CS(=O)(=O)CCCN(c1cc2oc(-c3ccc(F)cc3)c(-c3ncc[nH]3)c2cc1C1CC1)S(C)(=O)=O")
1
>>> class("CS(=O)(=O)N(CCCc1nnn[nH]1)c1cc2oc(-c3ccc(F)cc3)c(-c3ncc[nH]3)c2cc1C1CC1")
1
>>> class("Cn1cnc2ccc(-c3ncc(CN(c4ccc5c(-c6ncc[nH]6)c(-c6ccccc6)oc5c4)S(C)(=O)=O)s3)cc21")
1
>>> class("CC(C)(O)C(O)CN(c1cc2oc(-c3ccc(F)cc3)c(-c3ncc[nH]3)c2cc1C1CC1)S(C)(=O)=O (centres unmarked)")
-1
>>> class("CS(=O)(=O)N(CC1CC1)c1cc2oc(-c3ccc(F)cc3)c(-c3ncc[nH]3)c2cc1C1CC1")
-1
>>> class("CS(=O)(=O)N(CCCCO)c1cc2oc(-c3ccc(F)cc3)c(C3=NOCN3)c2cc1C1CC1")
1
>>> class("CS(=O)(=O)N(CCO)c1cc2oc(-c3ccc(F)cc3)c(-c3ncc[nH]3)c2cc1C1CC1")
-1
>>> class("Cc1ccc(C)n1-c1nc(CCCN(c2cc3oc(-c4ccc(F)cc4)c(-c4ncc[nH]4)c3cc2C2CC2)S(C)(=O)=O)cs1")
-1
>>> class("COCCCN(c1cc2oc(-c3ccc(F)cc3)c(-c3ncc[nH]3)c2cc1C1CC1)S(C)(=O)=O")
-1
>>> class("CS(=O)(=O)N(Cc1cnc(Br)s1)c1cc2oc(-c3ccc(F)cc3)c(-c3ncc[nH]3)c2cc1C1CC1")
-1
